- Test system: LAN-1 cells
- assay_method_text: MTT cell proliferation assay, drug with or without mAb 8B6
- Type: cell-based, human
- setup_conditions: Homo sapiens, LAN1, drug alone, 48 hours, read-out: EC50
pEC50: −log10 of the molar value.
quantity_name: pEC50

INSERT INTO results (compound_structure, quantity_name, reported_value) VALUES
  ('COc1cccc2c1C(=O)c1c(O)c3c(c(O)c1C2=O)C[C@@](O)(C(=O)CO)C[C@@H]3O[C@H]1C[C@H](N)[C@H](O)[C@H](C)O1', 'pEC50', 5.33),
  ('CC[C@@]1(O)C(=O)OCc2c1cc1n(c2=O)Cc2cc3c(CN(C)C)c(O)ccc3nc2-1', 'pEC50', 6.11),
  ('CC1=C(/C=C/C(C)=C/C=C/C(C)=C\C(=O)O)C(C)(C)CCC1', 'pEC50', 5.13);

----------
- Test system: GUITh glioblastoma primary cells
- assay_method_text: MTT assay, temozolomide with or without mAb 8B6
- Type: cell-based
- setup_conditions: Homo sapiens, temozolomide alone, 72 hours
- Procedure: Tumor specimens were collected from patients with a histologic diagnosis of GBM. Tumors were harvested at the time of surgical resection and immediately put into culture after dissociation of the tumors using the gentleMACs™ Dissociator (Miltenyi) according to the manufacturer's instructions. Equivalent culture media volume was added to control wells. […] Cell viability was measured using the MTT assay and half maximal effective concentration (EC50) was calculated as previously disclosed.
quantity_name: EC50 (mM)

INSERT INTO assay_data (molecule, study_system, reported_value) VALUES
  ('Cn1nnc2c(C(N)=O)ncn2c1=O [temozolomide]', 'GUITh glioblastoma primary cells', 3.16);

Reference source: patent US11697689B2
